Tested on: U2OS
runDescription: Multiplex assay against U2OS
Type: toxicity, cell-based
conditionNotes: human, 12 h, 10 µM, compound concentration 10 uM, replicate 2
# Condition met = Total Cell Count below 70 (exclusive); Condition not met = Total Cell Count at/above 70

// known answers, use as guide
O=C(O)c1ccc2cc(-c3ccc(O)c(C45CC6CC(CC(C6)C4)C5)c3)ccc2c1 [O-DEMETHYLATED ADAPALENE]
Condition not met
Cc1cc2c(cc1N1C(=O)c3cccc4c(CCCO)ccc(c34)C1=O)n(C)c(=O)n2C
Condition met
CC(C)(C)c1cnc(CSc2cnc(NC(=O)C3CCNCC3)s2)o1 [BMS-387032]
Condition not met

Q. Identify whether the compound Cc1nc(Cc2cccc(C(F)(F)F)c2)sc1-c1ccc(C(N)=O)nc1 [TP-024n] records Total Cell Count below 70.
A. Condition met

====

System: U2OS
runDescription: Multiplex assay against U2OS
Type: toxicity, cell-based
conditionNotes: human, 24 h, 1 µM, compound concentration 1 uM, replicate 2
Classification field: enter true for Population Fragmented Nuclei (%) values not below 5%, false for values below it.

Q. Could you tell me if the measured Population Fragmented Nuclei (%) of Cl.Cl.NC1(c2ccc(-c3nc4ccn5c(=O)[nH]nc5c4cc3-c3ccccc3)cc2)CCC1 reaches 5% or more?
A. true

Q. Also Cc1cn(-c2cc(NC(=O)c3ccc4c(c3)CN(c3cncnc3)C[C@@H]4C)cc(C(F)(F)F)c2)cn1 , if possible.
A. true

====

Tested on: Fibroblast
runDescription: Multiplex assay against human fibroblast
Format: toxicity, cell-based
conditionNotes: 24 h, 1 µM, compound concentration 1 uM, replicate 1
measuredParameter: Population Mitochondria Different-Phenotype (%)
Answer format: value, then unit.

CC(C)(C)c1cnc(CSc2cnc(NC(=O)C3CCNCC3)s2)o1 [BMS-387032]
4%
Cl.Cl.Nc1ncnc2c1c(-c1cccc(OCc3ccccc3)c1)cn2[C@H]1C[C@@H](CN2CCC2)C1
3%
CC(C)Oc1ccc(C(=O)N[C@H](CNC(=O)CN(C)C)Cc2ccc(-c3cn4cccc([C@H](C)O)c4n3)cc2)cc1Cl [GSK-923295A]
7%
O=C(O)c1ccc2cc(-c3ccc(O)c(C45CC6CC(CC(C6)C4)C5)c3)ccc2c1 [O-DEMETHYLATED ADAPALENE]
18%
COc1cc2c(Nc3ccc(NC(=O)c4ccccc4)cc3)ncnc2cc1OCCCN1CCOCC1
17%

Q. Population Mitochondria Different-Phenotype (%) for CNc1oc(-c2cccc3ccccc23)nc1C#N ?
A. 0%

Q. Also CCc1cc2c(cc1CC)CC(NC[C@H](O)c1ccc(O)c3[nH]c(=O)ccc13)C2 [INDACATEROL] , if possible.
A. 5%

Q. Also Cl.Cl.NC1(c2ccc(-c3nc4ccn5c(=O)[nH]nc5c4cc3-c3ccccc3)cc2)CCC1 , if possible.
A. 1%

====

Test system: HEK-293T
runDescription: Multiplex assay against HEK293T
Format: toxicity, cell-based
conditionNotes: human, 12 h, 10 µM, compound concentration 10 uM, replicate 1
measuredParameter: Total Cell Count
Respond with the number and no other words.

Take a look at these entries with their results.
CCn1c(-c2nonc2N)nc2cnc(Oc3cccc(NC(=O)c4ccc(OCCN5CCOCC5)cc4)c3)cc21 [GSK-269962A]
284
N#Cc1cnc(Nc2cc(NC[C@H]3CNCCO3)c(C(F)(F)F)cn2)cn1 [SRA-737]
721
COc1cc2c(NC3CCN(C(C)C)CC3)nc(N3CCC(F)(F)CC3)nc2cc1OCCCN1CCCC1
298
c1ccc2oc(-c3csc(C4CCN(Cc5nc6ncccc6[nH]5)CC4)n3)cc2c1
511
Nc1ccc(C(=O)Nc2cccc(-c3nc(N4CCOCC4)c4oc5ncccc5c4n3)c2)cn1
385
CCC(=O)O[C@]1(C(=O)SCF)[C@H](C)C[C@H]2[C@@H]3C[C@H](F)C4=CC(=O)C=C[C@]4(C)[C@@]3(F)[C@@H](O)C[C@@]21C [FLUTICASONE PROPIONATE]
203
Cl.Cl.Nc1ncnc2c1c(-c1cccc(OCc3ccccc3)c1)cn2[C@H]1C[C@@H](CN2CCC2)C1
264

Please examine the following record next.
Q. For the record Cl.Cl.NC1(c2ccc(-c3nc4ccn5c(=O)[nH]nc5c4cc3-c3ccccc3)cc2)CCC1 , what value of Total Cell Count is listed for HEK-293T?
A. 496
